- system.tested: human BACE-1 (Homo sapiens)
- test.description: CEREP BACE Inhibition Assay
- Type: biochemical
- condition: recombinant enzyme; read-out: IC50
Structures can show the parent of a compound that is named as a salt.
endpoint: pIC50
The scale used: pIC50 is minus the common logarithm of the concentration in molar units.

# example entries with known answers
CC(C)[C@H](CCC(=O)OCc1ccccc1)N1Cc2cc(Oc3ccccc3)ncc2N=C1N	6.89
COC(=O)[C@@H](COC(C)(C)C)NC(=O)CC[C@@H](C(C)C)N1Cc2cc(Oc3ccccc3)ncc2N=C1N	7.02
CN(CCC[C@@H](C1CCCCC1)N1Cc2cc(Oc3ccccc3)ncc2N=C1N)C1CCCCC1	7.36

# lookup: pIC50 of "CC(C)(C)OC(=O)CC[C@@H](C1CCCCC1)N1Cc2cc(Oc3ccccc3)ncc2N=C1N"
6.62

Queued: "CC(C)(C)OC[C@H](CN1CCOCC1)NC(=O)CC[C@@H](C1CCCCC1)N1Cc2cc(Oc3ccccc3)ncc2N=C1N"
6.34

Entry to check: "CC(C)[C@H](CCC(=O)N(CC(=O)O)C1CCCCC1)N1Cc2cc(Oc3ccccc3)ncc2N=C1N"
6.92

What about "CN(C(=O)CC[C@@H](C1CCOCC1)N1Cc2cc(Oc3ccccc3)ncc2N=C1N)[C@@H](COCc1ccccc1)C(=O)O" ?
6.57

Another compound to look at: CC(C)(C)CCNC(=O)C[C@@H](C1CCCCC1)N1Cc2cc(Oc3ccccc3)ncc2N=C1N [Compound 202, hydrochloride salt]
6.66

# iterate: "NC1=Nc2cnc(Oc3ccccc3)cc2CN1[C@@H](CCC(=O)N(CCO)Cc1cccs1)C1CCCCC1"
6.92

# repeat for "C[C@@H](O)[C@H](CCC(=O)NCC(C)(C)C)N1Cc2cc(Oc3ccccc3)ncc2N=C1N"
6.72

And then "C[C@H](CO)N(CCC(C)(C)C)C(=O)CC[C@@H](C1CCCCC1)N1Cc2cc(Oc3ccccc3)ncc2N=C1N" , what is it?
6.51

###

Listed below: inhibition at 0.3 µM values for each entry.
- system.tested: β-secretase (BACE) (Homo sapiens)
- Construct: purchased Panvera
- test.description: BACE FS1 Assay (% Inhibition and Ki)
- Type: biochemical
- condition: 0.3 μM test compound; FS1 substrate; read-out: % Inhibition (FS) @ 0.3 μM
Counter-ions that a name gives are not always drawn.
// units = %; emit number, no label

Any idea what its inhibition at 0.3 µM is? The molecule is COCCC(CCC(=O)N(C)C1CCCCC1)N1Cc2cc(Oc3ccccc3)ncc2N=C1N (stereo not shown)
32

Quick one: CC(C)OCCC(CCC(=O)N(C)C1CCCCC1)N1Cc2cc(Oc3ccccc3)ncc2N=C1N (stereo not shown)
40

Also "CC(C)(C)OC(=O)NCCN1Cc2cc(Oc3ccccc3)ncc2N=C1N" ?
70

What would you report for "CN(C(=O)CC[C@@H](C1CCOCC1)N1Cc2cc(Oc3ccccc3)ncc2N=C1N)[C@H]1CC[C@@H](C(=O)O)CC1" ?
114

Would you mind doing "CC(C)[C@H](CCC(=O)N(C)CCC(=O)O)N1Cc2cc(Oc3ccccc3)ncc2N=C1N" as well?
12

Further, for COC(=O)[C@H](COCc1ccccc1)N(C)C(=O)CC[C@@H](C(C)C)N1Cc2cc(Oc3ccccc3)ncc2N=C1N [Compound 51, trifluoroacetate salt] ?
114

Cool, now "CC(C)[C@H](CCC(=O)N[C@H](COCc1ccccc1)C(=O)OCc1ccccc1)N1Cc2cc(Oc3ccccc3)ncc2N=C1N"
73

###

- system.tested: human BACE-1 (Homo sapiens, UniProt P56817)
- Sequence (P56817 46-501): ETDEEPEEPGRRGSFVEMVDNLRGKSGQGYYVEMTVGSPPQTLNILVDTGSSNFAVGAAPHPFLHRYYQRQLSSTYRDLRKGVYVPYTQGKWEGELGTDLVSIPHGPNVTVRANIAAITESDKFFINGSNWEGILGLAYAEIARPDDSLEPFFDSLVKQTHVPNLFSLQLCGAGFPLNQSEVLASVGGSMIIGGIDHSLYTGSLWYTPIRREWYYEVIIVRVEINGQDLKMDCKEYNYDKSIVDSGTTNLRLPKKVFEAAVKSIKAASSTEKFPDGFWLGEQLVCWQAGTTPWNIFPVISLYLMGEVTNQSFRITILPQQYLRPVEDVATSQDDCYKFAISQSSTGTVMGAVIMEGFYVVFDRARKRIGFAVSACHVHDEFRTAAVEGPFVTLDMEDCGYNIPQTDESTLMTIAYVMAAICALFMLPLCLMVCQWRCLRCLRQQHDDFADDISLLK
- test.description: CEREP BACE Inhibition Assay
- Type: biochemical
- condition: 1.0 μM; percent inhibition of the control activity; recombinant enzyme; read-out: % Inhibition @ 1.0 μM
- Experimental: More specifically the assay, run at 50 μL in a 96 well plate, evaluated the effect of test compound on the activity of the human BACE-1 quantified by measuring the formation of Mca-S-E-V-N-L-NH2 from […], using a recombinant enzyme. […] The standard inhibitory reference compound was OM99-2, which was tested in each experiment at several concentrations to obtain an inhibition curve from which its IC50 value was calculated.
inhibition at 1 µM of 80% or higher: t. Under 80%: f.

CC(C)(C)OCCNC(=O)CC[C@@H](C1CCCCC1)N1Cc2cc(Oc3ccccc3)ncc2N=C1N [Compound 181]	t
NC1=Nc2cnc(Oc3ccccc3)cc2CN1[C@@H](CCC(=O)N1CCC(c2ccccc2)CC1)C1CCCCC1 [Compound 149]	f
CC(C)(C)CNC(=O)CC[C@@H](CC1CCOCC1)N1Cc2cc(Oc3ccccc3)ncc2N=C1N [Compound 219]	f
COCCN(CCOC)C(=O)CC[C@@H](C1CCCCC1)N1Cc2cc(Oc3ccccc3)ncc2N=C1N [Compound 142]	t
C[C@@H](CO)N(CCC(C)(C)C)C(=O)CC[C@@H](C1CCCCC1)N1Cc2cc(Oc3ccccc3)ncc2N=C1N [Compound 139]	t

Next, consider the following compound.
Could you tell me if the measured inhibition at 1 µM of CN(C(=O)CCCN1Cc2cc(Oc3ccccc3)ncc2N=C1N)C1CCCCC1 [Compound 196] reaches 80% or more?
f

###

- system.tested: human BACE-1 (Homo sapiens, UniProt P56817)
- test.description: CEREP BACE Inhibition Assay
- Type: biochemical
- condition: recombinant enzyme; read-out: IC50
endpoint: pIC50
Formally, pIC50 is defined as -log10 of the concentration c, with c in mol/L.

Would you please look over these solved cases?
NC1=Nc2cnc(Oc3ccccc3)cc2CN1[C@@H](Cn1cc(C2CCCCC2)nn1)C1CCCCC1	6.82
CC(C)(C)OCCN(Cc1ccccn1)C(=O)CC[C@@H](C1CCCCC1)N1Cc2cc(Oc3ccccc3)ncc2N=C1N [Compound 162]	7.05
CC(C)CN(CCC[C@@H](C1CCCCC1)N1Cc2cc(Oc3ccccc3)ncc2N=C1N)CCN1CCOCC1	7.14

Reported pIC50 for "NC1=Nc2cnc(Oc3ccccc3)cc2CN1[C@@H](CCCNCC1CC1)C1CCCCC1" : what is it?
6.62

Also "NC1=Nc2cnc(Oc3ccccc3)cc2CN1[C@@H](CCC(=O)N(Cc1nnn[nH]1)C1CCCCC1)C1CCCCC1" ?
6.48

Okay, and "C[C@@H](O)[C@H](CCC(=O)N(C)C1CCCCC1)N1Cc2cc(Oc3ccccc3)ncc2N=C1N" ?
6.49

Now try "NC1=Nc2cnc(Oc3ccccc3)cc2CN1[C@@H](CCC(=O)N1CCCC[C@H]1C(=O)O)C1CCCCC1" .
6.47

###

- system.tested: β-secretase (BACE) (Homo sapiens, UniProt P56817)
- Construct: purchased Panvera
- Sequence (P56817 46-501): as above
- test.description: BACE FS1 Assay (% Inhibition and Ki)
- Type: biochemical
- condition: 3 μM test compound; FS1 substrate; read-out: % Inhibition (FS) @ 3 μM
Where a name gives a salt, the structure may show the parent alone.
endpoint: inhibition at 3 µM (%)
# output: bare number, implied unit %

Guide cases for inhibition at 3 µM, answers given:
NC1=Nc2cnc(Oc3ccccc3)cc2CN1[C@@H](CCC(=O)N(CCO)[C@H]1CC[C@@H](C(=O)O)CC1)C1CCOCC1	115
CC(C)(C)OC(=O)NCCN1Cc2cc(Oc3ccccc3)ncc2N=C1N	124
CC(C)C(CCC(=O)N(CCO)C1CCC(c2nnn[nH]2)CC1)N1Cc2cc(Oc3ccccc3)ncc2N=C1N (stereo not shown)	95
COC(=O)[C@H](COCc1ccccc1)NC(=O)CC[C@@H](C(C)C)N1Cc2cc(Oc3ccccc3)ncc2N=C1N [Compound 45, hydrobromide salt]	110
COC(=O)[C@H]1CC[C@@H](N(C)C(=O)CC[C@@H](C2CCOCC2)N2Cc3cc(Oc4ccccc4)ncc3N=C2N)CC1	109
COC(=O)[C@H](COCc1ccccc1)N(C)C(=O)CC[C@@H](C(C)C)N1Cc2cc(Oc3ccccc3)ncc2N=C1N [Compound 51, trifluoroacetate salt]	118

Query (molecule): CC(C)OCCC(CCC(=O)N(C)C1CCCCC1)N1Cc2cc(Oc3ccccc3)ncc2N=C1N (stereo not shown) ; field requested: inhibition at 3 µM
103

Next entry: CN(C(=O)CCC(C1CCCCC1)N1Cc2cc(Oc3ccccc3)ncc2N=C1N)C1CCC(C(=O)O)CC1 (stereo not shown)
128

Next molecule up: COCCC(CCC(=O)N(C)C1CCCCC1)N1Cc2cc(Oc3ccccc3)ncc2N=C1N (stereo not shown)
103

Repeat with "CN(C(=O)CC[C@@H](C1CCOCC1)N1Cc2cc(Oc3ccccc3)ncc2N=C1N)[C@H]1CC[C@@H](C(=O)O)CC1"
113

###

- system.tested: β-secretase (BACE) (Homo sapiens, UniProt P56817)
- Construct: purchased Panvera
- test.description: BACE FS1 Assay (% Inhibition and Ki)
- Format: biochemical
- condition: 3 μM test compound; FS1 substrate; read-out: % Inhibition (FS) @ 3 μM
# inhibition at 3 µM annotations
Please respond with the number in % and leave the unit unwritten.

As a guide, the following entries are already answered.
CC(C)[C@H](CCC(=O)N(CCO)C1CCCCC1)N1Cc2cc(Oc3ccccc3)ncc2N=C1N [Compound 31]	125
CCC(CC)N(CCO)C(=O)CC[C@@H](C1CCCCC1)N1Cc2cc(Oc3ccccc3)ncc2N=C1N [Compound 50]	112
CN(C(=O)CC[C@@H](C1CCCCC1)N1Cc2cc(Oc3ccccc3)ncc2N=C1N)C1CCCCC1 [Compound 5]	138

Let us examine a further case.
Given the entry NC1=Nc2cnc(Oc3ccccc3)cc2CN1[C@@H](CCC(=O)N(CCO)[C@H]1CC[C@@H](C(=O)O)CC1)C1CCCCC1 [Compound 37] , what inhibition at 3 µM was observed with β-secretase (BACE) (Homo sapiens, UniProt P56817)?
114
